Assay: Phase 1 clinical study, pharmacokinetics (Example 39)
Assay type: in vivo
Conditions: human, in vivo, po
Result type: half-life

So what's the measured half-life for this one? Cc1cnc(NC2CCOCC2)nc1-n1cnc(C(=O)N[C@H](CN)c2cc(F)cc(Cl)c2)c1
~25 h

###

System: HCT116 (colorectal carcinoma, K Ras G13D) cells
Test: Cell proliferation (Alamar Blue) assay, HCT116
Type: cell-based, human
Details: 72 h
The compounds listed here are annotated with their IC50.

Example compounds with recorded IC50:
{"Compound": "Cc1cnc(NC2CCOCC2)nc1-n1cnc(C(=O)NC(c2cccc(Cl)c2)C(C)O)c1 (stereo not shown) [Example 252]", "IC50": "250 to 500 nM"}
{"Compound": "Cc1cnc(NC2CCOCC2)nc1-n1cnc(C(=O)NC(CN)c2ccc(Cl)s2)c1 (single isomer, unassigned; enantiomer #2)", "IC50": "500 to 2500 nM"}
{"Compound": "Cc1cnc(NC2CCOCC2)nc1-n1cnc(C(=O)NC(c2cccc(Cl)c2)C(C)O)c1 (stereo not shown) [Example 253]", "IC50": "> 2500 nM"}

Consider now this further compound.
Quick one: IC50 for Cc1cnc(Nc2ccc(F)cc2Cl)nc1-n1ccc(C(=O)N[C@H](CO)c2cccc(Cl)c2)c1 ?
500 to 2500 nM
